Assay: qHTS for Inhibitors of Inflammasome Signaling: IL-1-beta AlphaLISA Primary Screen; note: % is set by controls: 0 for no effect and ±100 for the full control effect
Details: THP-1 LPS/ATP IL-1B secretion, 16 h; at 57.5 µM, stronger effect = lower value
Text: Inflammasomes are a set of intracellular multi-protein complexes that enable autocatalytic activation of inflammatory caspases and drive the innate immune response to counter harmful agents. […] A qHTS assay, based on AlphaLISA technology, was developed to screen the Molecular Libraries Small Molecule Repository (MLSMR) to look for novel inflammasome inhibitors. The assay detects IL-1B using AlphaLISA anti-IL-1B acceptor and donor beads. […]
The whole screen tested about 360,000 compounds, of which about 17,000 (4.7%) were called active. Another 5% or so got no clear call; they are omitted. The sample as a whole holds a higher share of actives than the screen did.
Let's look at some molecules and their measured activity change.

Would you mind telling me what activity change value was observed for O=C(c1ccccc1)N1CCC(CC2CC(c3ccc(Cl)cc3)=NO2)(C(=O)NCC2CCCCC2)CC1 (stereo not given) ?
-55.1% (active)
